For each entry below, report its Inhibition value.
System: Candida albicans
test_conditions: Concentration 32 ug.mL-1; ASSAY_TEST Inhibition of Fungal Growth; detection method Absorption (OD530)
Description: Antifungal activity against Candida albicans ATCC 90028 (CO-ADD:FG_001); MIC in YNB media using NBS plates, by OD630
Entries with a potency or affinity are not part of this list.
Answers are plain numbers, in %.

CC(C)c1ccc(NC(=O)CSc2nc3ccccc3n3cnnc23)cc1
7.46
Cc1cccc(CN(c2ccc(F)cc2)S(=O)(=O)c2ccc3nnc(C)n3c2)c1
1.93
Cc1ccc(NC(=O)Cn2c(=O)c3nnc(C)n3c3ccccc32)cc1C
0.69

I would be grateful if you could provide Inhibition for each of the following entries.
1. COc1ccc(CNC(=O)CCc2nnc3c4cc(-c5ccc(Cl)cc5)nn4ccn23)cc1OC
2. O=C(Cn1nc2c(SC3CCCCC3)nccn2c1=O)NCc1ccc(F)cc1
3. CCC(Sc1nnc2c(=O)n(-c3ccc(F)cc3)ccn12)C(=O)Nc1cc(OC)cc(OC)c1 (stereo not given)
4. COc1ccc(NC(=O)Cn2c(=O)c3nnc(C)n3c3ccccc32)cc1Cl
5. CCOC(=O)c1ccccc1NC(=O)Cn1nc2c(Oc3ccccc3)nccn2c1=O
6. COc1ccc(-n2ccn3c(SCC(=O)N4CCN(c5ccccc5F)CC4)nnc3c2=O)cc1

1: 1.41; 2: 0.24; 3: -0.61; 4: 0.53; 5: 0.37; 6: 2.59

I'd like to know its Inhibition. The molecule in question is Cc1ccc(N(CC(=O)OC(C)(C)C)S(=O)(=O)c2cccn3cnnc23)cc1
3.93
